Here the recorded LD50 is given for each entry.
tested on: 786-0 cells; conditions: human
Form entry: value (µM) — number only.

- compound: "O=C1C(Cl)=C(Cl)C(O)N1CCc1ccccc1 (stereo not shown)"
  target-or-test-system: "786-0 cells"
  unit-descriptor: "µM"
  LD50: 74
- compound: "CC(C)CNC1=C(Cl)C(=O)OC1c1ccccc1 (stereo not shown)"
  target-or-test-system: "786-0 cells"
  unit-descriptor: "µM"
  LD50: 90
- compound: "COC1OC(=O)C(Cl)=C1Cl (stereo not shown)"
  target-or-test-system: "786-0 cells"
  unit-descriptor: "µM"
  LD50: 73

Entry CC(=O)OC1C(Cl)=C(Cl)C(=O)N1Cc1ccccc1 (stereo not shown) — recorded LD50 = 61

Entry O=C1C(Cl)=C(Cl)C(O)N1C1CC1 (stereo not shown) — recorded LD50 = 127

Entry O=C1C(Cl)=C(Cl)C(=O)N1Cc1ccccc1 — recorded LD50 = 104

Entry O=C1C(Cl)=C(Cl)CN1Cc1ccccc1 — recorded LD50 = 332

* * *

assay: physchem; settings: buffer
Here the recorded half-life is given for each entry.
Form entry: value (min) — number only.

These recorded examples may help you get a feel for the data.
- molecule: "O=C1C(Cl)=C(Cl)C(O)(c2ccccc2)N1Cc1ccccc1 (stereo not shown) [Compound 15]"
  endpoint-value: 340
- molecule: "O=C1NC(O)C(Cl)=C1Cl (stereo not shown) [Compound 9]"
  endpoint-value: 117
- molecule: "O=C1C(Cl)=C(Cl)C(O)N1Cc1ccc(C(F)(F)F)cc1 (stereo not shown) [Compound 40]"
  endpoint-value: 32
- molecule: "CC(=O)OC1C(Cl)=C(Cl)C(=O)N1Cc1ccccc1 (stereo not shown) [Compound 13]"
  endpoint-value: 21
- molecule: "O=C1C(Cl)=C(Cl)C(O)N1CCc1ccccc1 (stereo not shown) [Compound 29]"
  endpoint-value: 74

Entry O=C1C(Cl)=C(Cl)CN1Cc1ccccc1 [Compound 11] — recorded half-life = 64

Entry COC1C(Cl)=C(Cl)C(=O)N1Cc1ccccc1 (stereo not shown) [Compound 12] — recorded half-life = 118

* * *

conditions: Balb/c, mouse, pH 7.4
Here the recorded Plasma stab. % remaning at 3 hrs is given for each entry.
Form entry: value (%) — number only.

- compound: "O=C1C(Cl)=C(Cl)C(=O)N1Cc1ccccc1 [Compound 14]"
  endpoint-value: 70.2
- compound: "C#CCOC1OC(=O)C(Cl)=C1Cl (centres unmarked) [Compound 7]"
  endpoint-value: 0
- compound: "O=C1OC(c2ccccc2)C(Br)=C1Br (centres unmarked) [Compound 2]"
  endpoint-value: 0
- compound: "O=C1C(Cl)=C(Cl)CN1Cc1ccccc1 [Compound 11]"
  endpoint-value: 42.5
- compound: "O=C1c2ccccc2C(O)N1Cc1ccccc1 (centres unmarked) [Compound 20]"
  endpoint-value: 102.9
- compound: "O=C1OCC(Cl)=C1Cl [Compound 5, 3,4-Dichloro-5H-furan-2-one]"
  endpoint-value: 0
- compound: "O=C1C(Cl)=C(Cl)C(O)N1CCc1ccccc1 (centres unmarked) [Compound 29]"
  endpoint-value: 57.6
- compound: "O=C1OC(c2ccccc2)C(NCc2ccccc2)=C1Cl (centres unmarked) [Compound 3]"
  endpoint-value: 65.6
- compound: "CC1=C(C)C(O)N(Cc2ccccc2)C1=O (centres unmarked) [Compound 17]"
  endpoint-value: 82.0
- compound: "O=C1C(Cl)=C(Cl)C(O)N1Cc1ccccc1 (centres unmarked) [Compound 10]"
  endpoint-value: 19.8

Entry O=C1NC(O)C(Cl)=C1Cl (centres unmarked) [Compound 9] — recorded Plasma stab. % remaning at 3 hrs = 0

Entry O=C1C(Cl)=C(Cl)C(O)N1C1CC1 (centres unmarked) [Compound 25] — recorded Plasma stab. % remaning at 3 hrs = 54.8

Entry O=C1C(Cl)=C(Cl)C(O)N1Cc1ccc(C(F)(F)F)cc1 (centres unmarked) [Compound 40] — recorded Plasma stab. % remaning at 3 hrs = 15.3

Entry COC1OC(=O)C(Cl)=C1Cl (centres unmarked) [Compound 6] — recorded Plasma stab. % remaning at 3 hrs = 0

Entry CC(C)CNC1=C(Cl)C(=O)OC1c1ccccc1 (centres unmarked) [Compound 4] — recorded Plasma stab. % remaning at 3 hrs = 0

* * *

test system: 786-0 cells; conditions: human
Here the recorded LD50 is given for each entry.
Form entry: value (µM) — number only.

- compound: "O=C1C(Cl)=C(Cl)C(O)N1Cc1ccccc1 (stereo not drawn)"
  target-or-test-system: "786-0 cells"
  endpoint-value: 67

Entry O=C1OCC(Cl)=C1Cl — recorded LD50 = 41

Entry O=C1OC(c2ccccc2)C(Cl)=C1Cl (stereo not drawn) [Compound 1, reference compound] — recorded LD50 = 79

Entry COC1C(Cl)=C(Cl)C(=O)N1Cc1ccccc1 (stereo not drawn) — recorded LD50 = 206

Entry O=C1C(Cl)=C(c2ccccc2)C(O)N1Cc1ccccc1 (stereo not drawn) — recorded LD50 = 250

Entry C#CCOC1OC(=O)C(Cl)=C1Cl (stereo not drawn) — recorded LD50 = 52

Entry O=C1C(Cl)=C(Cl)C(O)N1Cc1ccc(C(F)(F)F)cc1 (stereo not drawn) — recorded LD50 = 36

Entry O=C1OC(c2ccccc2)C(Br)=C1Br (stereo not drawn) — recorded LD50 = 87

Entry O=C1C(Cl)=C(Cl)C(O)(c2ccccc2)N1Cc1ccccc1 (stereo not drawn) — recorded LD50 = 66

Entry O=C1NC(O)C(Cl)=C1Cl (stereo not drawn) — recorded LD50 = 148

Entry O=C1OC(c2ccccc2)C(NCc2ccccc2)=C1Cl (stereo not drawn) — recorded LD50 = 140

Entry O=C1C(Cl)=C(Cl)C(O)N1CCN1CCOCC1 (stereo not drawn) — recorded LD50 = 153

* * *

Here the recorded half-life is given for each entry.
assay: physchem; settings: buffer

- compound: "O=C1OC(c2ccccc2)C(Cl)=C1Cl (stereo not drawn) [Compound 1, reference compound]"
  half-life: "< 5 min"

Entry COC1OC(=O)C(Cl)=C1Cl (stereo not drawn) — recorded half-life = < 5 min

Entry O=C1OCC(Cl)=C1Cl — recorded half-life = < 5 min

* * *

conditions: Balb/c, mouse, pH 7.4
Here the recorded Plasma stab. % remaning at 3 hrs is given for each entry.
Form entry: value (%) — number only.

These recorded examples may help you get a feel for the data.
- molecule: "CC(=O)NCCSC1=C(Cl)C(=O)N(Cc2ccccc2)C1O (centres unmarked) [Compound 21]"
  unit-descriptor: "%"
  Plasma stab. % remaning at 3 hrs: 102.7
- molecule: "O=c1[nH]n(-c2ccccc2)c(Cl)c1Cl [Compound 8]"
  unit-descriptor: "%"
  Plasma stab. % remaning at 3 hrs: 88.3
- molecule: "CC(=O)OC1C(Cl)=C(Cl)C(=O)N1Cc1ccccc1 (centres unmarked) [Compound 13]"
  unit-descriptor: "%"
  Plasma stab. % remaning at 3 hrs: 0
- molecule: "O=C1C=CC(O)N1Cc1ccccc1 (centres unmarked) [Compound 16]"
  unit-descriptor: "%"
  Plasma stab. % remaning at 3 hrs: 98.2
- molecule: "O=C1OC(c2ccccc2)C(Cl)=C1Cl (centres unmarked) [Compound 1, reference compound]"
  unit-descriptor: "%"
  Plasma stab. % remaning at 3 hrs: 0
- molecule: "O=C1C(Cl)=C(Cl)C(O)N1CCN1CCOCC1 (centres unmarked) [Compound 28]"
  unit-descriptor: "%"
  Plasma stab. % remaning at 3 hrs: 38.9

Entry COC1C(Cl)=C(Cl)C(=O)N1Cc1ccccc1 (centres unmarked) [Compound 12] — recorded Plasma stab. % remaning at 3 hrs = 47.6

Entry O=C1C(Cl)=C(Cl)C(O)(c2ccccc2)N1Cc1ccccc1 (centres unmarked) [Compound 15] — recorded Plasma stab. % remaning at 3 hrs = 14.9

* * *

Here the recorded LD50 is given for each entry.
tested on: 786-0 cells; settings: human

Entry CCC1=C(Cl)C(=O)N(Cc2ccccc2)C1O (stereo not drawn) [Compound 18] — recorded LD50 = >360 µM

Entry CC(=O)NCCSC1=C(Cl)C(=O)N(Cc2ccccc2)C1O (stereo not drawn) [Compound 21] — recorded LD50 = >90 µM

Entry O=C1C=CC(O)N1Cc1ccccc1 (stereo not drawn) [Compound 16] — recorded LD50 = >360 µM

* * *

assay: physchem; settings: buffer
readout-type: half-life (min)
Form entry: value (min) — number only.

These recorded examples may help you get a feel for the data.
- compound: "O=C1C(Cl)=C(Cl)C(O)N1Cc1ccccc1 (stereo not drawn)"
  readout-type: "half-life"
  unit-descriptor: "min"
  endpoint-value: 32
- compound: "O=C1C(Cl)=C(Cl)C(O)N1CCN1CCOCC1 (stereo not drawn)"
  readout-type: "half-life"
  unit-descriptor: "min"
  endpoint-value: 96

Now examine the next entry.
Entry O=C1C(Cl)=C(Cl)C(O)N1C1CC1 (stereo not drawn) — recorded half-life = 53

* * *

Here the recorded LD50 is given for each entry.
test system: 786-0 cells; conditions: human

These recorded examples may help you get a feel for the data.
- compound: "O=C1c2ccccc2C(O)N1Cc1ccccc1 (stereo not drawn)"
  readout-type: "LD50"
  endpoint-value: ">360 µM"
- compound: "CC1=C(C)C(O)N(Cc2ccccc2)C1=O (stereo not drawn)"
  readout-type: "LD50"
  endpoint-value: ">360 µM"

Now examine the next entry.
Entry O=c1[nH]n(-c2ccccc2)c(Cl)c1Cl — recorded LD50 = >180 µM
